Could you please report measured protein stability index for the items listed next?
System: Saccharomyces cerevisiae
TEST: protein stability index of tFT-peptide fusion (C-terminal peptide) (PSI (0-1 scale)); higher = more stable (slower turnover);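 further: PSI is a weighted mean of sequencing reads over stability bins, variants kept only with over 10 reads, mCherry proximal and sfGFP distal, peptide attached via GGGS linker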
RUN CONDITIONS: genetic background: wild type; temperature: 37 C
Just the number, please, no unit attached.

The sequence listed as GCGWVFWVVDWG shows protein stability index equal to 0.539

For reference, reported protein stability index for VLVSYAIVILYL stands at 0.268

Consider YILIKEVLYAVC . Its measured protein stability index is 0.236

GET /value?item= FCASCLVCFIYL &field=protein stability index returns 0.517

Lab note: PLPSRAPVQFLL gave protein stability index of 0.372

Query SLFSPPVLATPS yields protein stability index of 0.68

get_value(item= FRVFYSFLLCLS , readout=protein stability index) returns 0.219

Briefly, protein stability index measured for LFWPPCYLFFCL : 0.437

Entry WVVWWFACVFGV ; protein stability index = 0.413

Sample KIVNNTKKNKCH ; protein stability index observed: 0.26

Value of measured protein stability index for the entry VIYNSALLLVRL : 0.386

GET /value?item= IFFYPFLIFCFV &field=protein stability index returns 0.332

protein stability index measured on RWSEHGFLVFLS = 0.373

Data point: PFSLCFVFPFFF ; protein stability index = 0.28

# protein stability index (sequence: LLLCVVLVSVFG ) is 0.134

Kindly note the recorded protein stability index for MFTIYISFVFAF , which is 0.284

protein stability index reported for this sequence VLISLVLLFRCW : 0.332

Entry under test: SARSYLTERLLA . Its protein stability index was 0.239

Reported protein stability index of RGYSAIWGCKMN : 0.529

----------
System: Saccharomyces cerevisiae
TEST: protein stability index of tFT-peptide fusion (C-terminal peptide) (PSI (0-1 scale)); higher = more stable (slower turnover)
RUN CONDITIONS: genetic background: wild type; temperature: 30 C
Use t when the recorded protein stability index is no lower than 0.7; use f when it is lower.

Quick check: does EQENATDRRGRE have protein stability index greater than or equal to 0.7?
f

Exam item: decide whether the reported protein stability index for LFPLFTLIFVHL is at least 0.7.
f

For this sequence, is measured protein stability index 0.7 or higher? PPFPHPSRLPPA
t

Reported protein stability index reaches at least 0.7 for PSPHLHPPPLPP ?
f

# bool: protein stability index of TRDEGWSSAARK >= 0.7
f

Decide: is the reported value of protein stability index for IGFLGYTRSIRN equal to or greater than 0.7?
f

Could you verify whether the entry AVVVCGGGWWWA shows protein stability index of no less than 0.7?
t

Say whether IRYARSYDMSEC shows protein stability index of 0.7 or more.
f

Could you please find out whether HPSARLPENRTP has protein stability index that meets 0.7 or exceeds it?
f

Quick check, protein stability index >= 0.7? FGDRGLGIIYFK
t

Given the entry GTLVFTYLVLRC , answer whether its protein stability index meets or surpasses 0.7.
f

Confirm if protein stability index reported for the sequence PAPPPPPLPPPP is 0.7 or above.
f

----------
System: Saccharomyces cerevisiae
TEST: protein stability index of tFT-peptide fusion (C-terminal peptide) (PSI (0-1 scale)); higher = more stable (slower turnover)
RUN CONDITIONS: genetic background: wild type; temperature: 37 C
RECORDED METRIC: protein stability index

The sequence GSITFFKMVQSG showed protein stability index equal to 0.687

Given item RALSLPPLLLVL , the value recorded as its protein stability index is 0.435

Per the records, this sequence ( RRPVHTHTSVSP ) has protein stability index equal to 0.701

Looking up YVDSGLTLIHLA , I found its protein stability index recorded as 0.334

Lab book: protein stability index of PPPRSLSPPLLS noted as 0.681

The recorded protein stability index for entry FYPLPASIPDFA equals 0.72

Consider VLGARWHWIYIA . Its measured protein stability index is 0.0674

// protein stability index value for FFSQLFLEIVAA : 0.171

Reported protein stability index of RSITFFPVCLVK : 0.426

// protein stability index value for FGARCSLSPLVT : 0.698

get_value(item= GGSHVWKFYRNF , readout=protein stability index) returns 0.552

Please fill in: protein stability index reported for RCIFYHSPVLCL = 0.511

Looking up SSVCLYWCCLFV , I found its protein stability index recorded as 0.517

Data point: YYFFLTFLCYVF ; protein stability index = 0.221

The value of protein stability index measured for the sequence CVFCRVAVGVDG turned out to be 0.59

Measured protein stability index, YFWWLWMSFWVG : 0.539

Measured protein stability index, VVGVVVCWGRGW : 0.621

Entry under test: MSQVRYQRATRA . Its protein stability index was 0.648

Lab book: protein stability index of VGYHCIVGVIFL noted as 0.512

Form: sequence = CLLGMKSRTILV ; protein stability index = 0.397

Note to self: protein stability index recorded for YVQTKKTRYVLV was 0.504

According to the records, this sequence LPTGLKTFLIAF displays protein stability index of 0.519

Record FCLMLWGAVLFL , field protein stability index: 0.33

Item: LFLFFFLPPLLF | protein stability index: 0.461

The recorded protein stability index for entry CALFLLSSPSPT equals 0.736

Entry VGVSVVMVVEVP , protein stability index reported as 0.0384

Measured protein stability index, DFCCGVILTCVC : 0.193

protein stability index measured on LCIRHFRLLELL = 0.268

The sequence listed as VLYLQCITSAGH shows protein stability index equal to 0.178

sequence IRRWGRCRVRCM , protein stability index observed: 0.529

Memo: VQFISLVCLFRF , reported protein stability index: 0.448

Field protein stability index (entry VAFLWVAFCFSG ) reads 0.366

Record SCIFVSSYFFVF , field protein stability index: 0.307

Summary for this sequence, QRFASFFFLHLS : protein stability index is 0.251

Reported protein stability index ( SPLLPPPLLFLS ) = 0.241

Record LIVCVKAITIVS . Reported protein stability index: 0.0521

Value of measured protein stability index for the entry WSFAPRLRCSYL : 0.878

What the record says about LCSYSTIPLRLY : protein stability index is 0.48

Memo: TVRVVMLRLLFT , reported protein stability index: 0.493

# protein stability index (sequence: AGGGGRFWVCVG ) is 0.554

Form field protein stability index, entry LFWCCVGLSVWR : 0.494

For this sequence ( FGGVFCVMARLV ), measured protein stability index is 0.506

// recorded protein stability index for RVGYSIIIIGIE : 0.457

Recorded protein stability index (sequence DCLSFVLFLFLC ): 0.149

Item: FPPFALLLIIND | protein stability index: 0.525

The reported protein stability index of the sequence GGVFYVFFVFVG was 0.258

For RLLLLPGPLALQ the sequence record lists protein stability index as 0.714

Please fill in: protein stability index reported for VAWCVWCWWWAV = 0.0852

What the record says about GKWVWSSFVWFG : protein stability index is 0.0945

# protein stability index of LNLACCWFVRCR = 0.399

Record PPLPPPPPHPPP , field protein stability index: 0.496

Noted for FFFPFLCIAVSL : its protein stability index reads 0.436

# sequence DILQITNIKQKR ; its protein stability index = 0.722

Short answer for FRDRFLRWNLVS : protein stability index was 0.21

Record GLFCCFLCLSVF , field protein stability index: 0.275

In plain terms, LVFFLFFFRCFS has a documented protein stability index of 0.488

protein stability index recorded for this sequence, HVRLRFQPVLFV , is 0.514

Summary for this sequence, CSSIFSSSDCYA : protein stability index is 0.731

The sequence RFFFASRYIECF showed protein stability index equal to 0.281

Sample IYPPVSVTNLLV ; protein stability index observed: 0.461

For this sequence ( GLSWRLVWVVII ), measured protein stability index is 0.0493

// recorded protein stability index for WGIPRRPTLFIP : 0.519

protein stability index reading for PPSRVSIRLLIR : 0.448

Value of protein stability index reported for the sequence SASPFYLPPPPV is 0.731

Please fill in: protein stability index reported for PSCLLVAPRFSS = 0.715

The measured protein stability index associated with LISRLVLVFVIP reads 0.47

Reported protein stability index for WFSVFTMSILSR was 0.474

Form field protein stability index, entry PVILISWQLRCY : 0.0417

Entry SYLPSHVYIFLL ; protein stability index = 0.129

// sample VSFRISAIFVCV , its protein stability index was 0.322

// sample NRFRLFRLNFSV , its protein stability index was 0.36

The reported protein stability index of the sequence HCNRLIFWYKCT was 0.298

// sample SLLFVFVSVGCI , its protein stability index was 0.166

Sure, the documented protein stability index for WHLLRFETQMFC is 0.337

Kindly note the recorded protein stability index for WYLLCESCLLCL , which is 0.558

Item: LSLSPRLPRLVA | protein stability index: 0.377

Field protein stability index (entry FRCFVLPYFGRF ) reads 0.549

// protein stability index lookup, sequence = FCFCLVLRVFLG , result: 0.222

# protein stability index (sequence: WGGEFLSLTLSS ) is 0.743

Quick note, protein stability index for VWFFLLSFANRL landed at 0.484

// protein stability index value for LVCLPVGFFLMW : 0.576

Measured protein stability index, LIRDLLYMAVLV : 0.329
